Assay: Cell cytotoxicity assay, HUH7
Assay type: cell-based
Conditions: human; Huh7 cells, 5 days at 37° C., XTT dye
recorded.endpoint: log10(CC50 at 5 days) (log10 of the value in nM)

compound	log10(CC50 at 5 days)
COC(=O)[C@H](C)NP(=O)(OC[C@H]1OC[C@@H](n2ccc(N)nc2=O)O1)Oc1ccc(C2CC2)cc1 (single isomer, unassigned)	2.72
CC(C)OC(=O)[C@H](C)NP(=O)(OC[C@H]1OC[C@@H](n2ccc(N)nc2=O)O1)Oc1ccccc1 (single isomer, unassigned) [Example 3]	3.52
Nc1ccn([C@@H]2CO[C@H](CO)O2)c(=O)n1 [Troxacitabine, reference compound]	2.81
CCC[C@H](C)OC(=O)[C@H](C)NP(=O)(OC[C@H]1OC[C@@H](n2cc(F)c(N)nc2=O)O1)Oc1cccc(C2CC2)c1 (single isomer, unassigned)	2.69
CC(C)OC(=O)[C@H](C)NP(=O)(OC[C@H]1OC[C@@H](n2ccc(N)nc2=O)O1)Oc1ccccc1 (single isomer, unassigned) [Example 2]	3.24
COC(=O)[C@H](Cc1ccccc1)NP(=O)(OC[C@H]1OC[C@@H](n2ccc(N)nc2=O)O1)Oc1ccccc1 (single isomer, unassigned)	4.19
COC(=O)[C@H](C)NP(=O)(OC[C@H]1OC[C@@H](n2ccc(N)nc2=O)O1)Oc1ccc(Br)cc1 (single isomer, unassigned)	3.01
